tested on: 782815-120-R-J1-PDC complex spheroid viability; experiment: Anticancer human tumor 782815-120-R-J1-PDC patient-derived colon adenocarcinoma cell line growth inhibition [RAS]; conditions: second compound 0.000949 µM; first compound 10 µM; active compounds read low;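 note: spheroids exposed to compounds for 7 days before reading; 100% = DMSO vehicle control viability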
Kindly supply the reported viability, T/C values for the records listed here.
Give bare numbers, in %.

# count of solved cases: 3
INSERT INTO results (compound, experimental_value) VALUES
  ('CC1(O)CCCC1n1c(=O)c(C(F)F)cc2cnc(NC3CCN(S(C)(=O)=O)CC3)nc21 (stereo not drawn) + CCn1c(-c2cccnc2C(C)OC)c2c3cc(ccc31)N1CCOC(CC(NC(=O)C(C(C)C)N(C)C(=O)C3(F)CCN(C(=O)C#CC(C)(C)N(C)C)CC3)C(=O)N3CCCC(N3)C(=O)OCC(C)(C)C2)C1', 23.8),
  ('Cc1nc(N2CCC3(CC2)COC(C)C3N)c(CO)nc1Sc1ccnc(N)c1Cl (stereo not drawn) + CCn1c(-c2cc(N3CCN(C)CC3)cnc2C(C)OC)c2c3cc(ccc31)-c1csc(n1)CC(NC(=O)C1CC1C)C(=O)N1CCCC(N1)C(=O)OCC(C)(C)C2', 69.9),
  ('NC1c2ccccc2OC12CCN(c1cnc3c(N4CCCc5ncccc54)n[nH]c3n1)CC2 (stereo not drawn) + CCn1c(-c2cc(N3CCN(C)CC3)cnc2C(C)OC)c2c3cc(ccc31)-c1csc(n1)CC(NC(=O)C1CC1C)C(=O)N1CCCC(N1)C(=O)OCC(C)(C)C2', 67.8);

Please look at the items below and tell me viability, T/C for each one, in order.
1. NC1c2ccccc2OC12CCN(c1cnc3c(N4CCCc5ncccc54)n[nH]c3n1)CC2 (stereo not drawn) + CCn1c(-c2cccnc2C(C)OC)c2c3cc(ccc31)N1CCOC(CC(NC(=O)C(C(C)C)N(C)C(=O)C3(F)CCN(C(=O)C#CC(C)(C)N(C)C)CC3)C(=O)N3CCCC(N3)C(=O)OCC(C)(C)C2)C1
2. CC(C)NCC(C(=O)N1CCN(c2ncnc3c2C(C)CC3O)CC1)c1ccc(Cl)cc1 (stereo not drawn) + CCn1c(-c2cccnc2C(C)OC)c2c3cc(ccc31)N1CCOC(CC(NC(=O)C(C(C)C)N(C)C(=O)C3(F)CCN(C(=O)C#CC(C)(C)N(C)C)CC3)C(=O)N3CCCC(N3)C(=O)OCC(C)(C)C2)C1
3. CC(C)NCC(C(=O)N1CCN(c2ncnc3c2C(C)CC3O)CC1)c1ccc(Cl)cc1 (stereo not drawn) + CCn1c(-c2cc(N3CCN(C)CC3)cnc2C(C)OC)c2c3cc(ccc31)-c1csc(n1)CC(NC(=O)C1CC1C)C(=O)N1CCCC(N1)C(=O)OCC(C)(C)C2
4. CC1(O)CCCC1n1c(=O)c(C(F)F)cc2cnc(NC3CCN(S(C)(=O)=O)CC3)nc21 (stereo not drawn) + CCn1c(-c2cc(N3CCN(C)CC3)cnc2C(C)OC)c2c3cc(ccc31)-c1csc(n1)CC(NC(=O)C1CC1C)C(=O)N1CCCC(N1)C(=O)OCC(C)(C)C2
5. CC(=O)OC12COC1CC(O)C1(C)C(=O)C(O)C3=C(C)C(OC(=O)C(O)C(NC(=O)OC(C)(C)C)c4ccccc4)CC(O)(C(OC(=O)c4ccccc4)C21)C3(C)C (stereo not drawn) + CCn1c(-c2cc(N3CCN(C)CC3)cnc2C(C)OC)c2c3cc(ccc31)-c1csc(n1)CC(NC(=O)C1CC1C)C(=O)N1CCCC(N1)C(=O)OCC(C)(C)C2

Out:
[77.7, 104, 87.9, 17, 32.5]
